Biological target: Human TRPA1 (Homo sapiens, UniProt O75762)
Sequence (O75762 whole entry): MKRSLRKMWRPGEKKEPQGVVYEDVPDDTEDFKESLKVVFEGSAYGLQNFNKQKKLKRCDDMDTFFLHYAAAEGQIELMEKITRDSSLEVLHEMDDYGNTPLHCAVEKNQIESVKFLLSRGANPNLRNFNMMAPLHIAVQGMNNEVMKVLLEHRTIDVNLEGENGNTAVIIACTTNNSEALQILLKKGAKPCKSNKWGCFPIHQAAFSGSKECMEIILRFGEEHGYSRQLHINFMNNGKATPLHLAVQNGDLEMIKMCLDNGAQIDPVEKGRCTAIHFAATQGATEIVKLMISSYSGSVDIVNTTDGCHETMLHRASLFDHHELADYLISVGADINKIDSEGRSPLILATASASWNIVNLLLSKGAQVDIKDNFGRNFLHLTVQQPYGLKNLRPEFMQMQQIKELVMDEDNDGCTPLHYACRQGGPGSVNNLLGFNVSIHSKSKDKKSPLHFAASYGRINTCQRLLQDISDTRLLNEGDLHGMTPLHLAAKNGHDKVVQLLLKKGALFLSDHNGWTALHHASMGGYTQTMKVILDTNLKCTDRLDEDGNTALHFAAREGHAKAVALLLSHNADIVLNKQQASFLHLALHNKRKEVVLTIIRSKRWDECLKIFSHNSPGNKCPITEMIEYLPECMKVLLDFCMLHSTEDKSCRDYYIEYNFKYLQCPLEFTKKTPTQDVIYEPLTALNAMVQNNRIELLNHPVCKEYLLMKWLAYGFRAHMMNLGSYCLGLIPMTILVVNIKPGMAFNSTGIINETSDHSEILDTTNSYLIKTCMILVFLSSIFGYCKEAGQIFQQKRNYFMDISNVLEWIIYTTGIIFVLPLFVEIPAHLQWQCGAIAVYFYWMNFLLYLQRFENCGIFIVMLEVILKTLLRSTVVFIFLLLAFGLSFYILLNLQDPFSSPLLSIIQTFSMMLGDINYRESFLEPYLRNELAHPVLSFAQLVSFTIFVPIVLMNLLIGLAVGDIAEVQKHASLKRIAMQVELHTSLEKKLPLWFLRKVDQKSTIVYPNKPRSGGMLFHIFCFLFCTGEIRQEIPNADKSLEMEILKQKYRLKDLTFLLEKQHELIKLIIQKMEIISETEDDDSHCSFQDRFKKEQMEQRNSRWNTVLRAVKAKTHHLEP
Experiment: Assay 1: In vitro cellular testing of TRPA1 modulation (CHO-TREx, Fluo-3 calcium fluorescence, AITC agonist)
Format: cell-based
Design: expressed in transfected cells; host or cells: CHO-TREx cells (Invitrogen), vector pcDNA4/TO
Details: CHO-TREx cells expressing human TRPA1; Fluo-3 fluorescence (FLIPR/Tetra); agonist 15 μM allyl isothiocyanate (AITC); 30 minute antagonist incubation
Method: Assay 1: In Vitro Cellular Testing of TRPA1 Modulation Human TRPA1 (NCBI accession number NM_007332.1) was cloned into pcDNA4/TO. […] Following a further 30 minute incubation, cells were assayed using a Fluorometric Imaging Plate Reader (FLIPR™) or a Tetra (both manufactured by Molecular Devices, CA) to simultaneously monitor Fluo-3 fluorescence in all wells (λexcitation=488 nm, λemission=540 nm). […]
IC50: recorded values
RECORDED_ENDPOINT: IC50 (nM)

compound="CC(Nc1cc(CNC(=O)[C@@H]2CCCN2S(=O)(=O)c2ccc(F)cc2)cc(-c2ccc(C(F)(F)F)cc2)n1)c1ccccc1 (stereo partly shown)" value=269
compound=O=C(NCc1cc(NCc2ccccc2)nc(-c2ccc(C(F)(F)F)cc2)c1)[C@@H]1CC(F)(F)CN1S(=O)(=O)c1ccc(Cl)s1 value=7090
compound=N[C@@H]1CCN(c2nc(CNC(=O)[C@@H]3CCCN3S(=O)(=O)c3ccc(Cl)s3)cc(-c3ccc(C(F)(F)F)cc3)n2)C1 value=1650
compound=O=C(NCc1cc(-c2ccc(C(F)(F)F)cc2)nc(N2CCCCC2)c1)[C@@H]1CCCN1S(=O)(=O)c1ccc(Cl)s1 value=21
compound=O=C(NCc1cccc(-c2ccc(C(F)(F)F)cc2)c1)[C@@H]1[C@H]2C[C@H]2CN1S(=O)(=O)c1ccc(Cl)s1 value=92
compound=COc1ccc(-c2cccc(CNC(=O)[C@@H]3CCCN3S(=O)(=O)c3ccc(F)cc3)c2)cc1 value=410
compound=Cn1ccc2cc(-c3cccc(CNC(=O)[C@@H]4CCCN4S(=O)(=O)c4ccc(F)cc4)c3)ccc21 value=432
compound=O=C(NCc1ccnc(-c2ccc(C(F)(F)F)cc2)c1)[C@@H]1CCCN1S(=O)(=O)c1ccc(Cl)s1 value=11
compound=O=C(NCc1cc(NCc2ccccc2)nc(-c2ccc(C(F)(F)F)cc2)c1)[C@@H]1CCCN1S(=O)(=O)c1ccc(F)cc1 value=1180
compound="CCN(CC)C1CCN(c2nc(CNC(=O)[C@@H]3CCCN3S(=O)(=O)c3ccc(Cl)s3)cc(-c3ccc(C(F)(F)F)cc3)n2)C1 (stereo partly shown)" value=1070
compound=O=C(NCc1cc(-c2ccc(C(F)(F)F)cc2)nc(N2CCC(Cc3ccccc3)CC2)n1)[C@@H]1CCCN1S(=O)(=O)c1ccc(F)cc1 value=2
compound=O=C(NCc1ccnc(-c2ccc(C(F)(F)F)cc2)c1)[C@@H]1CC(F)(F)CN1S(=O)(=O)c1ccc(Cl)s1 value=46
compound=O=C(NCc1cc(-c2ccc(OC(F)(F)F)cc2)ncn1)[C@@H]1CCCN1S(=O)(=O)c1ccc(F)cc1 value=71

---

Target: Human TRPA1 (Homo sapiens)
Test: Assay 1: In vitro cellular testing of TRPA1 modulation (CHO-TREx, Fluo-3 calcium fluorescence, AITC agonist)
Format: cell-based
Parameters: expressed in transfected cells; host or cells: CHO-TREx cells (Invitrogen), vector pcDNA4/TO
Conditions: CHO-TREx cells expressing human TRPA1; Fluo-3 fluorescence (FLIPR/Tetra); agonist 15 μM allyl isothiocyanate (AITC); 30 minute antagonist incubation
pIC50: −log10 of the molar value.
RECORDED_ENDPOINT: pIC50

smiles_record=O=C(NCc1ccnc(-c2ccc(OC(F)(F)F)cc2)c1)[C@@H]1CCCN1S(=O)(=O)c1ccc(Cl)s1 recorded_endpoint=pIC50 value=8.22
smiles_record=O=C(NCc1cc(-c2ccc(C(F)(F)F)cc2)ncn1)[C@@H]1CCCN1S(=O)(=O)c1ccccc1 recorded_endpoint=pIC50 value=7.11
smiles_record=CC(C)CN1CCN(c2cc(CNC(=O)[C@@H]3C=CCN3S(=O)(=O)c3ccc(F)cc3)cc(-c3ccc(C(F)(F)F)cc3)n2)CC1 recorded_endpoint=pIC50 value=6.42
smiles_record=O=C(NCc1cc(-c2ccc(C(F)(F)F)cc2)nc(N2CCN(Cc3ccccn3)CC2)c1)[C@@H]1CC(F)(F)CN1S(=O)(=O)c1ccc(F)cc1 recorded_endpoint=pIC50 value=5.52
smiles_record=Cc1ccc(-c2cccc(CNC(=O)[C@@H]3CCCN3S(=O)(=O)c3ccc(F)cc3)c2)cc1 recorded_endpoint=pIC50 value=6.86
smiles_record=O=C(NCc1cc(-c2ccc(C(F)(F)F)cc2)nc(N2CCN(Cc3ccccc3)CC2)c1)[C@@H]1C=CCN1S(=O)(=O)c1ccc(Cl)s1 recorded_endpoint=pIC50 value=6.38
